- EXPERIMENT NOTES: chemical genetic growth profiling, strain panel (AID 1159580);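 note: tested at 20 µM; growth read once vehicle control cultures reached saturation at 30 °C; 1 = growth at the plate median or of vehicle wells; lower values mean less growth of the strain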
- SETUP CONDITIONS: S. cerevisiae deletion strains, growth OD, locus YJL134W, strain LCB3, stronger effect = lower value
About 2,000 (36%) of roughly 5,500 compounds were called active. Not shown: some 18% with an inconclusive outcome. Some of the results follow.
Give measured normalized growth for each item. Keep answers brief.
Answer using only a numeral; do not append any unit.

Looking for the measured normalized growth of CN1CCN(C2=Nc3cc(Cl)ccc3Nc3ccccc32)CC1 , can you help?
1.01

COC1=CC23CCCN2CCc2cc4c(cc2C3C1O)OCO4 (stereo not given) ?
1.01

N[C@@H](C(=O)N[C@@H]1C(=O)N2C(C(=O)O)=C(Cl)CS[C@H]12)c1ccccc1 ?
1.01

CC1=C(C(=O)O)N2C(=O)[C@@H](NC(=O)[C@@H](N)c3ccc(O)cc3)[C@H]2SC1 ?
0.983

O=C1C(=O)c2ccccc2C(O)=C1C1CCC(c2ccc(Cl)cc2)CC1 (stereo not given) ?
0.988

---

Give measured normalized growth for each item. Keep answers brief.
- EXPERIMENT NOTES: chemical genetic growth profiling, strain panel (AID 1159580);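 note: tested at 20 µM; growth read once vehicle control cultures reached saturation at 30 °C; 1 = growth at the plate median or of vehicle wells; lower values mean less growth of the strain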
- SETUP CONDITIONS: S. cerevisiae deletion strains, growth OD, locus YIL125W, strain kgd1, stronger effect = lower value
The whole screen tested about 5,500 compounds, of which about 2,000 (36%) were called active. Roughly 18% stayed inconclusive and do not appear here. The list shows a part of the results.
Answer using only a numeral; do not append any unit.

Looking for the measured normalized growth of C[C@]12CC[C@@H](O)C[C@H]1CCc1ccccc12 , can you help?
0.996

COc1cc(O)c2c(c1)C(=O)c1cc(C)cc(O)c1C2=O ?
0.994

C[C@]12[C@H](O)CC3C(CC[C@@H]4C[C@@H](O)CC[C@]34C)[C@@]1(O)CC[C@@H]2C1=CC(=O)OC1 (stereo not given in full) ?
0.984

C=C[C@H]1CN2CC[C@H]1C[C@H]2[C@H](O)c1ccnc2ccccc12 ?
0.994

CC(C)[C@@H]1CC[C@@H](C)C[C@H]1OC(=O)c1ccccc1 ?
0.99

CC1=C(C(=O)O)N2C(=O)[C@@H](NC(=O)[C@@H](N)c3ccc(O)cc3)[C@H]2SC1 ?
0.988

N[C@@H](C(=O)N[C@@H]1C(=O)N2C(C(=O)O)=C(Cl)CS[C@H]12)c1ccccc1 ?
1.02

O=c1c(O)c(-c2ccccc2)oc2ccc3occc3c12 ?
0.886

CN(C)CCC[C@@]1(c2ccc(F)cc2)OCc2cc(C#N)ccc21 ?
1.02

O=c1c(O)c(-c2ccccc2)oc2ccccc12 ?
0.999

---

- EXPERIMENT NOTES: chemical genetic growth profiling, strain panel (AID 1159580);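 note: tested at 20 µM; growth read once vehicle control cultures reached saturation at 30 °C; 1 = growth at the plate median or of vehicle wells; lower values mean less growth of the strain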
- SETUP CONDITIONS: S. cerevisiae deletion strains, growth OD, locus YGR135W, strain pre9, stronger effect = lower value
In all, about 5,500 compounds went through this assay and about 2,000 (36%) were called active. About 18% were inconclusive and are not listed. This is one part of the list.
Could you mark each record fulfilled if its normalized growth falls strictly under 1, and not fulfilled if it equals or exceeds it?

Does this compound meet the criterion normalized growth < 1? ClC1C(Cl)C(Cl)C(Cl)C(Cl)C1Cl (stereo unspecified)
fulfilled

CN(C)CCC[C@@]1(c2ccc(F)cc2)OCc2cc(C#N)ccc21 ?
not fulfilled

NC(=NCCCCCCN=C(N)N=C(N)Nc1ccc(Cl)cc1)N=C(N)Nc1ccc(Cl)cc1 ?
fulfilled

CC(=O)OC[C@@]1(O)C[C@@]23CCC4c5ccoc5CC[C@]4(C)C2CC[C@@H]1C3 (stereo partly specified) ?
fulfilled

COc1ccccc1OCC(O)COC(N)=O (stereo unspecified) ?
fulfilled

COc1cc2c(cc1OC)C(C)NCC2 (stereo unspecified) ?
fulfilled

OC[C@H]1O[C@@H](Oc2ccc(O)cc2)[C@H](O)[C@@H](O)[C@@H]1O ?
not fulfilled

CC1(C)CC23C(=O)CCC(O)C2(C)CCC13 (stereo unspecified) ?
not fulfilled

CC(=O)O[C@@H]1C2CC[C@@H]3C1(C[C@@H](O)[C@@]1(O)[C@@H](C[C@H](O)C1(C)C)[C@]3(C)O)C[C@@]2(C)O (stereo partly specified) ?
not fulfilled

COC(=O)C(O)[C@H]1C(C)(C)[C@@H](OC(C)=O)[C@@H]2CC3=C4CC(=O)O[C@@H](c5ccoc5)[C@]4(C)CCC3[C@@]1(C)C2=O (stereo partly specified) ?
fulfilled

CC(=O)OCC1=C(C(=O)O)N2C(=O)[C@@H](NC(=O)CSc3ccncc3)[C@H]2SC1 ?
not fulfilled

CC(=O)OC1CCC2(O)CC1(C)CCC1C2CC1(C)C (stereo unspecified) ?
not fulfilled

CNC(C)(C)Cc1ccccc1 ?
not fulfilled

CC[C@H]1OC(=O)[C@H](C)[C@@H](O[C@H]2C[C@@](C)(OC)[C@@H](O)[C@H](C)O2)[C@H](C)[C@@H](O[C@@H]2O[C@H](C)C[C@H](N(C)C)[C@H]2O)[C@](C)(O)C[C@@H](C)/C(=N/OCOCCOC)[C@H](C)[C@@H](O)[C@]1(C)O ?
not fulfilled

CNC(C)[C@@H]1CC[C@@H](N)[C@@H](OC2[C@@H](N)C[C@@H](N)[C@H](OC3OC[C@](C)(O)[C@H](NC)[C@H]3O)[C@H]2O)O1 (stereo partly specified) ?
not fulfilled

Cc1cc(O)c2c(c1)C(=O)c1cc(O)cc(O)c1C2=O ?
fulfilled

O=C(/C=C/c1ccc(O)cc1)c1ccc(O)cc1O ?
fulfilled

CCC[C@@H]1C[C@@H](C(=O)N[C@H]([C@H]2O[C@H](SC)[C@H](O)[C@@H](O)[C@H]2O)[C@H](C)O)N(C)C1 ?
fulfilled
